Let's look at some binders and their measured kon.
target: T1, tissue factor (S33 to E251) (Homo sapiens, UniProt P13726); test: SPR; Biacore 8K; TF immobilised on a CM5 chip by amine coupling (450-750 response units); Fab as analyte; single-cycle kinetics, association 120 s, dissociation 1800 s, no regeneration; PBS with 0.005% Tween-20; three measurements; settings: both partners purified
T1 construct: tissue factor (TF), residues S33 to E251; the antigen of the antibody D3h44 in PDB 1JPS; The tag was removed with Ulp1; tag-free TF was used; Antigen residues named in the text (S202, K169, P194, I152) follow the numbering of PDB 1JPS, not that of the construct limits; also called TF; antigen; source: E. coli BL21 (DE3), purified (Ni-NTA, SEC); not shown: His6, N-terminal, cleaved; SUMO, …
T1 sequence (P13726 33-251): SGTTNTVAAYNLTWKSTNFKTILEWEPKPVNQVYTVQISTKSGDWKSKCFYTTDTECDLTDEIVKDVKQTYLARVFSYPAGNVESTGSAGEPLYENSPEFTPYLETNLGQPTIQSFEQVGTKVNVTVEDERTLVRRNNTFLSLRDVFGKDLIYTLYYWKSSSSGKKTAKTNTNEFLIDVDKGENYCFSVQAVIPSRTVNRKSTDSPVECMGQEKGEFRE
Numbers only here, please. The scale is M⁻¹ s⁻¹.

# binder, unit symbol, kon
data = [
    ("D3h44 Fab H-K30Q/H-E54H double-point mutant (Fab, V domains shown, as the heavy chain of m2 (PDB 1JPS chain H) with the stated changes; as the light chain of m2 (PDB 1JPS chain L); Tag as for m2; source: ExpiCHO, purified (Ni-NTA, SEC)) VH: EVQLVESGGGLVQPGGSLRLSCAASGFNIQEYYMHWVRQAPGKGLEWVGLIDPHQGNTIYDPKFQDRATISADNSKNTAYLQMNSLRAEDTAVYYCARDTAAYFDYWGQGTLVTVSS VL: DIQMTQSPSSLSASVGDRVTITCRASRDIKSYLNWYQQKPGKAPKVLIYYATSLAEGVPSRFSGSGSGTDYTLTISSLQPEDFATYYCLQHGESPWTFGQGTKVEIK", "M⁻¹ s⁻¹", 940000),
    ("D3h44 Fab L-H91S (Fab, V domains shown, as the heavy chain of m2 (PDB 1JPS chain H); as the light chain of m2 (PDB 1JPS chain L) with the stated change; Tag as for m2; source: ExpiCHO, purified (Ni-NTA, SEC)) VH: EVQLVESGGGLVQPGGSLRLSCAASGFNIKEYYMHWVRQAPGKGLEWVGLIDPEQGNTIYDPKFQDRATISADNSKNTAYLQMNSLRAEDTAVYYCARDTAAYFDYWGQGTLVTVSS VL: DIQMTQSPSSLSASVGDRVTITCRASRDIKSYLNWYQQKPGKAPKVLIYYATSLAEGVPSRFSGSGSGTDYTLTISSLQPEDFATYYCLQSGESPWTFGQGTKVEIK", "M⁻¹ s⁻¹", "1.6e+07"),
]

Look at this binder and give its reported kon. D3h44 Fab L-N34D (Fab, V domains shown, as the heavy chain of m2 (PDB 1JPS chain H); as the light chain of m2 (PDB 1JPS chain L) with the stated change; Tag as for m2; source: ExpiCHO, purified (Ni-NTA, SEC)) VH: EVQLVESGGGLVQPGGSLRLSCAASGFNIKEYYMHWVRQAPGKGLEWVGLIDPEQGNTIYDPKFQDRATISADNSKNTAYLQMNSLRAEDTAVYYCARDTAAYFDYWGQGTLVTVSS VL: DIQMTQSPSSLSASVGDRVTITCRASRDIKSYLDWYQQKPGKAPKVLIYYATSLAEGVPSRFSGSGSGTDYTLTISSLQPEDFATYYCLQHGESPWTFGQGTKVEIK
2e+06
